# Test system: BALB 3T3 cells
# assay protocol: in vitro 3T3 NRU test, phototoxicity
# Assay type: cell-based, mouse
# study conditions: Mus musculus, light or radiation study; BALB 3T3, irradiated 2.4 J/cm^2 (PC50); read-out: IC50 of Mean ± SD, Phototoxicity

>  <mol smiles>
CCOC(=O)Cc1nc(N)c2c(C)c(C(=O)OCC)sc2n1

>  <IC50>
1080 µg/mL

$$$$
>  <mol smiles>
CCOC(=O)c1sc2nc(CCCl)nc(N)c2c1C

>  <IC50>
545 µg/mL

$$$$
>  <mol smiles>
CCOC(=O)c1sc2nc(C)nc(N)c2c1C

>  <IC50>
2350 µg/mL

$$$$
>  <mol smiles>
CCOC(=O)c1sc2nc(CC)nc(N)c2c1C

>  <IC50>
2110 µg/mL

$$$$

* * *

# assay protocol: in vitro 3T3 NRU test, cytotoxicity
# Assay type: cell-based, mouse
# study conditions: mouse, BALB/3T3 clone A31 cells (mouse embryo fibroblasts), BALB 3T3, 24 h, NRU, no irradiation (CC50); read-out: IC50 of Mean ± SD, Cytotoxicity
Here, each record is paired with measured IC50 at 24 h data.
parameter: IC50 at 24 h (µg/mL)

>  <mol smiles>
CCOC(=O)c1sc2nc(CC)nc(N)c2c1C

>  <parameter>
IC50 at 24 h

>  <units symbol>
µg/mL

>  <recorded measurement>
2630

$$$$
>  <mol smiles>
CCOC(=O)c1sc2nc(CCCl)nc(N)c2c1C

>  <parameter>
IC50 at 24 h

>  <units symbol>
µg/mL

>  <recorded measurement>
674

$$$$
>  <mol smiles>
CCOC(=O)c1sc2nc(C)nc(N)c2c1C

>  <parameter>
IC50 at 24 h

>  <units symbol>
µg/mL

>  <recorded measurement>
1540

$$$$
>  <mol smiles>
CCOC(=O)Cc1nc(N)c2c(C)c(C(=O)OCC)sc2n1

>  <parameter>
IC50 at 24 h

>  <units symbol>
µg/mL

>  <recorded measurement>
1740

$$$$

* * *

Listed here are compounds together with their documented melting point.
parameter: melting point

>  <compound>
CCOC(=O)c1sc2nc(CCCl)nc(N)c2c1C [Compound 3]

>  <recorded measurement>
163 to 165 °C

$$$$
>  <compound>
CCOC(=O)c1sc2nc(C)nc(N)c2c1C [Compound 5]

>  <recorded measurement>
203 to 204 °C

$$$$
>  <compound>
CCOC(=O)Cc1nc(N)c2c(C)c(C(=O)OCC)sc2n1 [Compound 2]

>  <recorded measurement>
206 to 207 °C

$$$$
>  <compound>
CCOC(=O)c1sc2nc(CC)nc(N)c2c1C [Compound 4]

>  <recorded measurement>
173 to 175 °C

$$$$

* * *

A collection of compounds and their measured IC50
# System: BALB 3T3 cells
# assay protocol: in vitro 3T3 NRU test, phototoxicity
# Format: cell-based, mouse
# study conditions: Mus musculus, light or radiation study; BALB 3T3, irradiated, value in brackets; read-out: IC50, Phototoxicity (converted)
parameter: IC50 (mM)

>  <mol smiles>
CCOC(=O)Cc1nc(N)c2c(C)c(C(=O)OCC)sc2n1

>  <recorded measurement>
3.3

$$$$
>  <mol smiles>
CCOC(=O)c1sc2nc(C)nc(N)c2c1C

>  <recorded measurement>
9.4

$$$$
>  <mol smiles>
CCOC(=O)c1sc2nc(CC)nc(N)c2c1C

>  <recorded measurement>
8

$$$$
>  <mol smiles>
CCOC(=O)c1sc2nc(CCCl)nc(N)c2c1C

>  <recorded measurement>
1.9

$$$$
